Source listed as paper PMC10817097.

- PROCEDURE_SUMMARY: Equilibrium surface tension measurements (Wilhelmy plate)
- Format: physicochemical
- CONDITION_SUMMARY: aqueous solution, 25 °C

| STRUCTURE_SMILES | cmc (critical micelle concentration) |
| --- | --- |
| CC(=O)Oc1ccc(/C=C/C(=O)OCCCCCC[P+](c2ccccc2)(c2ccccc2)c2ccccc2)cc1OC(C)=O | 7.5 × 10^−3 mol·dm^−3 |
| CC(=O)Oc1ccc(/C=C/C(=O)OCCCCCCCCCC[P+](c2ccccc2)(c2ccccc2)c2ccccc2)cc1OC(C)=O | 2.2 × 10^−3 mol·dm^−3 |
| CC(=O)Oc1ccc(/C=C/C(=O)OCCCCCCCCCCCC[P+](c2ccccc2)(c2ccccc2)c2ccccc2)cc1OC(C)=O | 1.0 × 10^−3 mol·dm^−3 |
| CC(=O)Oc1ccc(/C=C/C(=O)OCCCCCCCC[P+](c2ccccc2)(c2ccccc2)c2ccccc2)cc1OC(C)=O | 5.2 × 10^−3 mol·dm^−3 |
